species: Rattus norvegicus; experiment: Open TG-GATES - Regimen: Daily Repeat; assay type: toxicity, organism-based, Sprague-Dawley; design: regimen Daily Repeat, gender Male, age 6 weeks; settings: in vivo, po, 0 mg/kg, 72 h, tissue Blood, route gavage, dose level Control, time 3 day
MEASUREMENT_NAME: Ht (%)
Unit % implied. Number only.

# annotated cases, reported Ht shown
1) COc1ccc2[nH]c([S+]([O-])Cc3ncc(C)c(OC)c3C)nc2c1 (stereo not given) [OMEPRAZOLE] = 38
2) CC(C)OC(=O)C(C)(C)Oc1ccc(C(=O)c2ccc(Cl)cc2)cc1 [FENOFIBRATE] = 39.9
3) NNC(=O)c1ccncc1 [ISONIAZID] = 40.8
4) CCOc1ccc(NC(=O)CC(C)O)cc1 (stereo not given) [BUCETIN] = 40.2

Fill blank: measured Ht of the compound NC(N)=Nc1nc(CSCCC(N)=NS(N)(=O)=O)cs1 [FAMOTIDINE] is ____.
37.4

Hey, just so you know, these numbers are from ChEMBL document CHEMBL3885861.
